All figures here come from patent US20230192860A1.

measuredTarget: T1, monovalent hVISTA-ECD with polyhistidine tail (SEQ ID NO: 325) (human, UniProt Q9H7M9 33-193)
T1 construct: also called hVISTA-ECD 6-His tag; human VISTA
T1 sequence (Q9H7M9 other isoform, or with tags, fused parts or gaps limits assumed): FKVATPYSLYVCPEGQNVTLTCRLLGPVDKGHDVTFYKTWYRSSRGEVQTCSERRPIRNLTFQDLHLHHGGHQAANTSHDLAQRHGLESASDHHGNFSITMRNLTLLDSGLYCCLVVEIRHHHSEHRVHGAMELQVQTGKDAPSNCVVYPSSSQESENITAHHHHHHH
assayMethodText: SPR, mAb captured on Protein A chip, hVISTA injected, PBST pH 7.4, 37 C
propertyName: kon (M⁻¹ s⁻¹)
Give bare numbers, in M⁻¹ s⁻¹.

// query What kon value was documented for this binder, P1-077883 (P1-068748 H31S D57K) (antibody, V domains shown, Reversion mutant of P1-068748 (Kabat names); captured on a Protein A chip) VH: QVQLVESGGGVVQPGRSLRLSCAASGFTFSSHAMHWVRQAPGKGLEWVAIIWYDGSNKDYADSVKGRFTISRDNSKNTLYLQMNSLRAEDTAVYYCARDSGFYDSYYFDYWGQGTLVTVSS VL: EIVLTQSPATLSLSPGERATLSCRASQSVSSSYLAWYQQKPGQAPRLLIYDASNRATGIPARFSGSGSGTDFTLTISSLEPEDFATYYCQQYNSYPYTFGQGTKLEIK ?
// result 68000

Could you now look at the following binder, please?
// query What kon value was documented for this binder, P1-077877 (P1-068748 H32Y D57K) (antibody, V domains shown, Reversion mutant of P1-068748 (Kabat names); captured on a Protein A chip) VH: QVQLVESGGGVVQPGRSLRLSCAASGFTFSHYAMHWVRQAPGKGLEWVAIIWYDGSNKDYADSVKGRFTISRDNSKNTLYLQMNSLRAEDTAVYYCARDSGFYDSYYFDYWGQGTLVTVSS VL: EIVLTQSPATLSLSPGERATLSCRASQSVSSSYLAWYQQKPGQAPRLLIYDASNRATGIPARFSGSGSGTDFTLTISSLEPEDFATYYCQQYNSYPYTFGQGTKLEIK ?
// result 88000
